target: Human ASBT (Homo sapiens); construct: expressed in transfected cells; kept under Puromycin selection; assay: ASBT (h/m) assay: 3H-taurocholic acid uptake in human ASBT-overexpressing cells; format: cell-based; conditions: 0.25 μM 3H-taurocholic acid and 5 μM cold taurocholic acid, 20 minutes, read-out: hASBT IC50
Sequence (Q12908 whole entry): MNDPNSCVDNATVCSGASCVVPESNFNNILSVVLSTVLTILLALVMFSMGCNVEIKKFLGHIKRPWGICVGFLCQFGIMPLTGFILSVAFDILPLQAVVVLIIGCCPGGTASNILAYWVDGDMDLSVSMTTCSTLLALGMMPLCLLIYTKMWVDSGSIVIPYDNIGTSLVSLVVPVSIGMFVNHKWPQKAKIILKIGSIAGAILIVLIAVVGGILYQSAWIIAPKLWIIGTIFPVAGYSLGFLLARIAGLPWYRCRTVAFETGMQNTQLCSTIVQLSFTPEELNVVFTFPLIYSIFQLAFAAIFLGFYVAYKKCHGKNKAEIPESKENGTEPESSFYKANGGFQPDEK
ENDPOINT_LABEL: IC50

COMPOUND	RECORDED_RESULT
CCCC[C@]1(CC)CN(c2ccccc2)c2cc(Br)c(O/C=C(\F)C(=O)O)cc2S(=O)(=O)C1 (single isomer, unassigned) [Example 64]	524 nM
CCCC[C@]1(CC)CN(c2ccccc2)c2cc(N(C)C)c(O/C=C(\F)C(=O)O)cc2S(=O)(=O)C1 (single isomer, unassigned) [Example 110]	138 nM
CCCCC1(CC)CN(c2ccccc2)c2cc(SC)c(O/C=C/C(=O)O)cc2S(=O)(=O)N1C (racemic) [Example 88]	2250 nM
CCCC[C@]1(CC)CN(c2ccccc2)c2cc(F)c(O/C=C/C(=O)O)cc2S(=O)(=O)C1 (single isomer, unassigned) [Example 102]	3330 nM
CCC1(CC)CN(c2ccccc2)c2cc(Br)c(O/C=C(\F)C(=O)O)cc2S(=O)(=O)C1 [Example 56]	380 nM

====

target: Human LBAT (Homo sapiens); construct: kept under Geneticin selection; experiment: LBAT (h/m) assay: 3H-taurocholic acid uptake in human LBAT-overexpressing cells; conditions: 0.3 μM 3H-taurocholic acid and 7.5 μM cold taurocholic acid, 20 minutes, read-out: hLBAT IC50
Sequence (Q14973 whole entry): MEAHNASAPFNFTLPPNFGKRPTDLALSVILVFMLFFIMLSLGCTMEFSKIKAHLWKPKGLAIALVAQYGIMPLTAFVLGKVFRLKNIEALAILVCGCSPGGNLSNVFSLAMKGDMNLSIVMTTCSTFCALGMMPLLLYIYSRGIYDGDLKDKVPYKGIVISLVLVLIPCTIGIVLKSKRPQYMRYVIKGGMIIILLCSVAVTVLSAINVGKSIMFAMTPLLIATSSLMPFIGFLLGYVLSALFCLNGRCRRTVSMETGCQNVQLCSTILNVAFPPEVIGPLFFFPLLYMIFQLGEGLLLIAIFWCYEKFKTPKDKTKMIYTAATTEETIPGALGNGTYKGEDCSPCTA
ENDPOINT_LABEL: log10(IC50) (log10 of the value in nM)

MOLECULE	RECORDED_RESULT
CCCC[C@@]1(CC)CN(c2ccccc2)c2cc(SC)c(O/C=C/C(=O)O)cc2S(=O)(=O)N1 (single isomer, unassigned)	2.47
CCCCC1(CCCC)CN(c2ccc(O)cc2)c2cc(SC)c(O/C=C(\F)C(=O)O)cc2S(=O)(=O)C1	1.89
CCCC[C@]1(CC)CN(c2ccccc2)c2cc(SC)c(O/C=C(\F)C(=O)O)cc2S(=O)(=O)N1 (single isomer, unassigned)	1.49
CCCCC1(CC)CN(c2ccccc2)c2cc(Br)c(O/C=C/C(=O)O)cc2S(=O)(=O)N1 (centres unmarked)	2.34
CCCC[C@]1(CC)CN(c2ccccc2)c2cc(SC)c(O/C=C/C(=O)O)cc2S(=O)(=O)N1C (single isomer, unassigned)	1.69
CCCCC1(CCCC)CN(c2ccccc2)c2cc(SC)c(O/C=C(\C)C(=O)O)cc2S(=O)(=O)N1	2.81
CCCCC1(CCCC)CN(c2ccc(NC(=O)C(C)C)cc2)c2cc(SC)c(O/C=C/C(=O)O)cc2S(=O)(=O)C1	2.33
CCCCC1(CCCC)CN(c2ccc(NC(=O)C3CC3)cc2)c2cc(SC)c(O/C=C(\F)C(=O)O)cc2S(=O)(=O)C1	1.59
CCCCC1(CCCC)CN(c2ccc(F)c(F)c2)c2cc(SC)c(O/C=C(\F)C(=O)O)cc2S(=O)(=O)C1	1.70
CCCCC1(CCCC)CN(c2ccccc2)c2cc(Br)c(O/C=C/C(=O)O)cc2S(=O)(=O)N1	2.54
CCCCC1(CCCC)CN(c2ccc(NC(=O)C(C)(C)C)cc2)c2cc(SC)c(O/C=C/C(=O)O)cc2S(=O)(=O)C1	1.66

====

system: HepaRG cells; test: HepaRG-based assay: 3H-taurocholic acid uptake in differentiated HepaRG cells; format: cell-based; conditions: Homo sapiens, HepaRG, 0.3 μM 3H-taurocholic acid and 7.5 μM cold taurocholic acid, 30 minutes
pIC50: −log10 of the molar value.

MOLECULE	pIC50
CCCCC1(CC)CN(c2ccc(C(=O)NC(C)(C)C)cc2)c2cc(SC)c(O/C=C/C(=O)O)cc2S(=O)(=O)C1 (stereo not shown)	6.11
CCCCC1(CC)CN(c2ccccc2)c2cc(Br)c(O/C=C(\F)C(=O)O)cc2S(=O)(=O)C1 (racemic)	6.45
CCCCC1(CC)CN(c2ccc(NC(=O)C3CCCC3)cc2)c2cc(SC)c(O/C=C/C(=O)O)cc2S(=O)(=O)C1 (stereo not shown)	6.34
CCC1(CC)CN(c2ccccc2)c2cc(I)c(O/C=C/C(=O)O)cc2S(=O)(=O)C1	6.59
CCCCC1(CCCC)CN(c2ccc(C(=O)NC(C)C)cc2)c2cc(SC)c(O/C=C/C(=O)O)cc2S(=O)(=O)C1	6.20
CCCCC1(CCCC)CN(c2ccc(OC)cc2)c2cc(SC)c(O/C=C/C(=O)O)cc2S(=O)(=O)C1	5.54
CCCCC1(CCCC)CN(c2ccc(NS(=O)(=O)C3CC3)cc2)c2cc(SC)c(O/C=C/C(=O)O)cc2S(=O)(=O)C1	5.51
CCCC[C@@]1(CC)CN(c2ccccc2)c2cc(SC)c(O/C=C/C(=O)O)cc2S(=O)(=O)N1 (single isomer, unassigned)	5.27
CCC1(CC)CN(c2ccccc2)c2cc(SC)c(O/C=C(\F)C(=O)O)cc2S(=O)(=O)C1	6.69
CCCCC1(CC)CN(c2ccccc2)c2cc(SC)c(O/C=C/C(=O)O)cc2S(=O)(=O)N1C (racemic)	5.94
CCCCC1(CCCC)CN(c2ccc(NC(=O)C(C)C)cc2)c2cc(SC)c(O/C=C(\F)C(=O)O)cc2S(=O)(=O)C1	6.51
CCCCC1(CC)CN(c2ccccc2)c2cc(SC)c(O/C=C(\F)C(=O)O)cc2S(=O)(=O)N1C (racemic)	6.17
CCCC[C@]1(CC)CN(c2ccccc2)c2cc(SC)c(O/C=C/C(=O)O)cc2S(=O)(=O)N1C (single isomer, unassigned)	5.85
CCCCC1(CC)CN(c2ccccc2)c2cc(N(C)C)c(O/C=C(\F)C(=O)O)cc2S(=O)(=O)C1 (stereo not shown)	6.35
CCCCC1(CCCC)CN(c2ccc(C(=O)NC(C)(C)C)cc2)c2cc(SC)c(O/C=C/C(=O)O)cc2S(=O)(=O)C1	6.46
CCCCC1(CC)CN(c2ccccc2)c2cc(SC)c(O/C=C(\F)C(=O)O)cc2S(=O)(=O)N1 (racemic)	6.25
